# testSystem: histone deacetylase, subtype 1 (HDAC1) (Homo sapiens (Human))
# assayName: HDAC1-Flag in vitro deacetylation assay
# Type: biochemical
# conditionSet: IP = inflection point; read-out: HDAC1 IP (inflection point)
pIC50: −log10 of the molar value.
pIC50 of 7 or higher: met. Under 7: not met.

compound	classAssignment
CC(=O)N(Cc1ccc(C(=O)Nc2cc(-c3cccs3)ccc2N)cc1)Cc1cn(C)nn1 [Example 123]	met
CCOC(=O)NCc1ccc(C(=O)Nc2cc(-c3ccccc3)ccc2N)cc1 [Example 10]	met
COCC(C)NCc1ccc(C(=O)Nc2cc(-c3ccccc3)ccc2N)cc1 (centres unmarked) [Example 66]	met
CN1CCN(Cc2ccc(C(=O)Nc3cc(-c4ccccc4)ccc3O)cc2)CC1 [Example 100]	not met
O=C(Nc1cc(-c2ccccc2)ccc1O)c1ccc(CN2CCCC2c2ccccn2)cc1 (centres unmarked) [Example 116]	not met

====

# testSystem: CYP3A4 (Homo sapiens (Human), UniProt P08684)
# Sequence (P08684 whole entry): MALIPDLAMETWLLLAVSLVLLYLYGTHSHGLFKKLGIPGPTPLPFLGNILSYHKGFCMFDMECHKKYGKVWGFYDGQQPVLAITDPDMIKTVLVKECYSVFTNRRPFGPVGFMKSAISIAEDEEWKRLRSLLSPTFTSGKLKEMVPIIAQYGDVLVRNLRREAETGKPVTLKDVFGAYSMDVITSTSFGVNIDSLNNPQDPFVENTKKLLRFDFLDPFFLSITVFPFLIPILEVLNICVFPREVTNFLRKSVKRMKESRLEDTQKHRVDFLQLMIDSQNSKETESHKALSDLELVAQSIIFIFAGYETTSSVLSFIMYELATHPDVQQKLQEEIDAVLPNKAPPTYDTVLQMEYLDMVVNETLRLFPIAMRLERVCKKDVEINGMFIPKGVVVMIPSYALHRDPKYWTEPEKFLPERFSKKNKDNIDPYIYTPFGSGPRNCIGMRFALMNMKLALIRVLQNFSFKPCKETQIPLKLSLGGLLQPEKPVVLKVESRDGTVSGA
# assayName: CYP inhibition potential, CYP3A4
# Format: in vitro ADME
I would appreciate it if you labelled entries Yes when % CYP Inhibition @ 10 μM 3A4 is 30% or higher, otherwise No.

molecule	classAssignment
CCCC(=O)NCc1ccc(C(=O)Nc2cc(-c3ccccc3)ccc2N)cc1 [Example 14g]	Yes
COC(=O)NCc1ccc(C(=O)Nc2cc(-c3ccccc3)ccc2N)cc1 [Example 14f]	No
CCOC(=O)NCc1ccc(C(=O)Nc2cc(-c3ccccc3)ccc2N)cc1 [Example 14e]	No
Nc1ccc(-c2ccccc2)cc1NC(=O)c1ccc(CNC(=O)CCc2cccnc2)cc1 [Example 14a]	Yes
Nc1ccc(-c2ccccc2)cc1NC(=O)c1ccc(CNC(=O)OCc2ccccn2)cc1 [Example 14b]	Yes
Nc1ccc(-c2ccccc2)cc1NC(=O)c1ccc(CNC(=O)C2CCCCC2)cc1 [Example 14i]	No

====

# testSystem: histone deacetylase, subtype 1 (HDAC1) (Homo sapiens (Human))
# assayName: HDAC1-Flag in vitro deacetylation assay
# Type: biochemical
# conditionSet: IP = inflection point; read-out: HDAC1 IP (inflection point)
pIC50: −log10 of the molar value.
Reported pIC50 values are given for each entry in this list.

compound	pIC50
Nc1ccc(-c2cccs2)cc1NC(=O)c1ccc(CNC(=O)Cc2cccnc2)cc1 [Example 49]	8.00
NCCNCc1ccc(C(=O)Nc2cc(-c3ccccc3)ccc2O)cc1 [Example 107]	7.14
O=C(Nc1cc(-c2ccccc2)ccc1O)c1ccc(CN2CCNCC2)cc1 [Example 83]	7.19
Nc1ccc(-c2ccccc2)cc1NC(=O)c1ccc(CNC(=O)[C@@H]2CCCN2)cc1 [Example 58]	7.62
CN1CCC(CNCc2ccc(C(=O)Nc3cc(-c4ccccc4)ccc3O)cc2)C1 (centres unmarked) [Example 110]	6.74
CC(C)CNCc1ccc(C(=O)Nc2cc(-c3ccccc3)ccc2O)cc1 [Example 73]	6.96
Nc1ccc(-c2ccccc2)cc1NC(=O)c1ccc(CNc2ccncc2)cc1 [Example 61]	8.00
CCCOC(=O)NCc1ccc(C(=O)Nc2cc(-c3cccs3)ccc2N)cc1 [Example 19]	7.72
Nc1ccc(-c2cccs2)cc1NC(=O)c1ccc(CNC(=O)[C@@H]2CCCN2)cc1 [Example 57]	7.74
Nc1ccc(-c2ccccc2)cc1NC(=O)c1ccc(CNC(=O)c2ccccc2)cc1 [Example 35]	7.72
Nc1ccc(-c2cccnc2)cc1NC(=O)c1ccc(CNC(=O)OCc2cccnc2)cc1 [Example 3]	7.77
O=C(Nc1cc(-c2ccccc2)ccc1O)c1ccc(CNCCNc2ccccc2)cc1 [Example 97]	6.59
Nc1ccc(-c2cccs2)cc1NC(=O)c1ccc(CNC(=O)C2CCC2)cc1 [Example 43]	7.96
CC(=O)NCc1ccc(C(=O)Nc2cc(-c3ccccc3)ccc2N)cc1 [Example 23]	7.74
CNCCCN(C)Cc1ccc(C(=O)Nc2cc(-c3ccccc3)ccc2N)cc1 [Example 64]	7.74
CC(C)CC(=O)NCc1ccc(C(=O)Nc2cc(-c3ccccc3)ccc2N)cc1 [Example 29]	7.85
Cc1nc(-c2ccccc2)sc1CNCc1ccc(C(=O)Nc2cc(-c3ccccc3)ccc2O)cc1 [Example 74]	6.16
Nc1ccc(-c2cccs2)cc1NC(=O)c1ccc(CNC(=O)C2CCCC2)cc1 [Example 46]	7.70
O=C(Nc1cc(-c2ccccc2)ccc1O)c1ccc(CN2CCOCC2)cc1 [Example 85]	7.32
O=C(Nc1cc(-c2ccccc2)ccc1O)c1ccc(CNC2CCCC2)cc1 [Example 77]	6.82

====

# testSystem: UniProt Q12809
# Sequence (Q12809 whole entry): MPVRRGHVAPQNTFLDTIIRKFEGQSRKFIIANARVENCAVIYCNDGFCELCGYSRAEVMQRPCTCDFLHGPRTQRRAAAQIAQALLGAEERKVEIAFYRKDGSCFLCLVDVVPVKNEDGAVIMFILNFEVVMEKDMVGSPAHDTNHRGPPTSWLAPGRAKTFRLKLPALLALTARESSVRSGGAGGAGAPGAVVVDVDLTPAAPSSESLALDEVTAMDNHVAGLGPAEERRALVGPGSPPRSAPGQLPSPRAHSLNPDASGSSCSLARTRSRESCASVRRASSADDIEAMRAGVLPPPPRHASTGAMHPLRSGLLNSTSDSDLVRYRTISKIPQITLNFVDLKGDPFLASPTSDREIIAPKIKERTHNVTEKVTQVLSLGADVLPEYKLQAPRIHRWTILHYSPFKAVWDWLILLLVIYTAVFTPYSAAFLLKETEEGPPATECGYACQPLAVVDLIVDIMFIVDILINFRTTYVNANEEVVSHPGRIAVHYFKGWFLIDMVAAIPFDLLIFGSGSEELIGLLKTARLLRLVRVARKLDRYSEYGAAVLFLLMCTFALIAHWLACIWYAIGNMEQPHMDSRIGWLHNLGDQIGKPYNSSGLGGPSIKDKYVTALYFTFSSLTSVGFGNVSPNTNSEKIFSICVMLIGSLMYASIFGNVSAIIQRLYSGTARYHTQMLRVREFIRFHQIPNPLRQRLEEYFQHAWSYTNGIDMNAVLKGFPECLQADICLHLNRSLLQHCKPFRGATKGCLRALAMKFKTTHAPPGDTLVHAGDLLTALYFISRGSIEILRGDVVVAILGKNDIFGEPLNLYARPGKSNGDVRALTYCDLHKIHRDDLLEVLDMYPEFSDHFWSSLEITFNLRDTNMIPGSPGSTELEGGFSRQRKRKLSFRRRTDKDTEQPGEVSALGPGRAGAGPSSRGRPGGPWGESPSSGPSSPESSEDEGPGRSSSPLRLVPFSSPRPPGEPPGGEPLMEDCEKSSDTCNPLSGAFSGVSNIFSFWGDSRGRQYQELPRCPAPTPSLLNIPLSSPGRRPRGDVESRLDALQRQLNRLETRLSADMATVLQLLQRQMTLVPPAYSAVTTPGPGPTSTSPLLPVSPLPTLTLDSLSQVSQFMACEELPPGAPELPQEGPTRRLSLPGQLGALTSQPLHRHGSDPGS
# assayName: Displacement binding assay using radio-labeled MK-499

molecule	IC50
Nc1ccc(-c2ccccc2)cc1NC(=O)c1ccc(CNC(=O)CCc2cccnc2)cc1 [Example 14a]	3.7 µM

====

pIC50 for assorted molecules
# testSystem: histone deacetylase, subtype 1 (HDAC1) (Homo sapiens (Human))
# assayName: HDAC1-Flag in vitro deacetylation assay
# Assay type: biochemical
# conditionSet: IP = inflection point; read-out: HDAC1 IP (inflection point)
pIC50: −log10 of the molar value.

molecule	testSystem	pIC50
O=C(Nc1cc(-c2ccccc2)ccc1O)c1ccc(CNCCOc2ccccc2)cc1 [Example 96]	histone deacetylase, subtype 1 (HDAC1) (Homo sapiens (Human))	6.44
NCc1ccc(C(=O)Nc2cc(-c3ccccc3)ccc2O)cc1 [Example 8]	histone deacetylase, subtype 1 (HDAC1) (Homo sapiens (Human))	7.55
Nc1ccc(-c2cccs2)cc1NC(=O)c1ccc(CNC(=O)c2ccccc2)cc1 [Example 48]	histone deacetylase, subtype 1 (HDAC1) (Homo sapiens (Human))	7.89
CN(Cc1ccc(C(=O)Nc2cc(-c3ccccc3)ccc2O)cc1)C1CCOC1 (stereo not drawn) [Example 112]	histone deacetylase, subtype 1 (HDAC1) (Homo sapiens (Human))	7.37
O=C(Nc1cc(-c2ccccc2)ccc1O)c1ccc(CN2CCc3ccccc3C2)cc1 [Example 90]	histone deacetylase, subtype 1 (HDAC1) (Homo sapiens (Human))	6.60
CC(C)CNCc1ccc(C(=O)Nc2cc(-c3ccccc3)ccc2N)cc1 [Example 65]	histone deacetylase, subtype 1 (HDAC1) (Homo sapiens (Human))	7.46
Nc1ccc(-c2ccsc2)cc1NC(=O)c1ccc(CNC(=O)OCc2cccnc2)cc1 [Example 4]	histone deacetylase, subtype 1 (HDAC1) (Homo sapiens (Human))	8.24
O=C(Nc1cc(-c2ccccc2)ccc1O)c1ccc(CNCCCc2ccccc2)cc1 [Example 89]	histone deacetylase, subtype 1 (HDAC1) (Homo sapiens (Human))	6.35
Cc1csc(-c2ccc(N)c(NC(=O)c3ccc(CNc4ccncc4)cc3)c2)c1 [Example 69]	histone deacetylase, subtype 1 (HDAC1) (Homo sapiens (Human))	7.82

====

# testSystem: histone deacetylase, subtype 1 (HDAC1) (Homo sapiens (Human), UniProt Q13547)
# Sequence (Q13547 whole entry): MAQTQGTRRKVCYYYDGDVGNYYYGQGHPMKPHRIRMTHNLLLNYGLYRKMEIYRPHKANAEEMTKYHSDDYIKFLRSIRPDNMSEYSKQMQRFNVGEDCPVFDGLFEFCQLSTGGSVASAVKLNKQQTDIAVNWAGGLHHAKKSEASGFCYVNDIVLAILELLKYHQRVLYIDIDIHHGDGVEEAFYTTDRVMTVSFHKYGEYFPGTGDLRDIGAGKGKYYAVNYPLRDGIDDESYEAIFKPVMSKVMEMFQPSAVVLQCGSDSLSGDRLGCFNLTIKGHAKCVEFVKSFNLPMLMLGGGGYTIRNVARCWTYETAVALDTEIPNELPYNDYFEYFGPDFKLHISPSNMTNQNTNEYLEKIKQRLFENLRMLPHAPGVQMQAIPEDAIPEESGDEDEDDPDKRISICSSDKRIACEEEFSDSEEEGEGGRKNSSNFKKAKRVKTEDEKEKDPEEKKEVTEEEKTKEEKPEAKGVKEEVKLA
# assayName: HDAC1-Flag in vitro deacetylation assay
# Assay type: biochemical
# conditionSet: IP = inflection point; read-out: HDAC1 IP (inflection point)
propertyLabel: IC50 (µM)

molecule	propertyLabel	readoutValue
Nc1ccc(-c2cccs2)cc1NC(=O)c1ccc(CNC(=O)Cc2ccccn2)cc1	IC50	0.012
Nc1ccc(-c2ccsc2)cc1NC(=O)c1ccc(CNCC(=O)O)cc1	IC50	0.042
CC(C)COC(=O)NCc1ccc(C(=O)Nc2cc(-c3cccs3)ccc2N)cc1	IC50	0.031
Nc1ccc(-c2cccs2)cc1NC(=O)c1ccc(CN2C(=O)OC[C@H]2Cc2ccccc2)cc1	IC50	0.084

====

Each entry below carries its reported pIC50.
# testSystem: histone deacetylase, subtype 1 (HDAC1) (Homo sapiens (Human))
# assayName: HDAC1-Flag in vitro deacetylation assay
# Assay type: biochemical
# conditionSet: IP = inflection point; read-out: HDAC1 IP (inflection point)
pIC50: −log10 of the molar value.

molecule	pIC50
Nc1ccc(-c2ccccc2)cc1NC(=O)c1ccc(CNC(=O)Cc2ccccn2)cc1	7.72
O=C(Nc1cc(-c2ccccc2)ccc1O)c1ccc(CNc2ccccc2)cc1	7.05
CCC(=O)NCc1ccc(C(=O)Nc2cc(-c3cccs3)ccc2N)cc1	7.92
CCCOC(=O)NCc1ccc(C(=O)Nc2cc(-c3ccccc3)ccc2N)cc1	7.54
Nc1ccc(-c2ccccc2)cc1NC(=O)c1ccc(CNC(=O)C2CCC2)cc1	7.64
Nc1ccc(-c2cccc(F)c2)cc1NC(=O)c1ccc(CNc2ccncc2)cc1	7.57
Nc1ccc(-c2ccccc2)cc1NC(=O)c1ccc(CNC(=O)Cc2ccccc2)cc1	7.14
Nc1ccc(-c2ccccc2)cc1NC(=O)c1ccc(CNC(=O)CCc2ccccc2)cc1	7.85
O=C(Nc1cc(-c2ccccc2)ccc1O)c1ccc(CN2Cc3ccccc3C2)cc1	4.57
CC(C)NCCNCc1ccc(C(=O)Nc2cc(-c3ccccc3)ccc2O)cc1	7.36
O=C(Nc1cc(-c2ccccc2)ccc1O)c1ccc(CNCCc2ccccc2)cc1	6.01
CC1CCN(Cc2ccc(C(=O)Nc3cc(-c4ccccc4)ccc3O)cc2)CC1	6.66
CNCCCN(C)Cc1ccc(C(=O)Nc2cc(-c3ccccc3)ccc2O)cc1	7.74
CC(=O)NCc1ccc(C(=O)Nc2cc(-c3cccs3)ccc2N)cc1	7.96
Nc1ccc(-c2cccs2)cc1NC(=O)c1ccc(CNC(=O)CCc2cccnc2)cc1	7.89
CN(Cc1ccc(C(=O)Nc2cc(-c3ccccc3)ccc2O)cc1)Cc1cnn(C)c1	7.62
O=C(Nc1cc(-c2ccccc2)ccc1O)c1ccc(CNC2CC2)cc1	7.12
O=C(Nc1cc(-c2ccccc2)ccc1O)c1ccc(CNCc2cccnc2)cc1	7.49

Data origin: patent US9096559B2
